Assay: Hematology assays in cynomolgus monkeys (Example 46)
Assay type: in vivo
Settings: Day 17
Strand notation (5' to 3'): a small letter for the sugar, then the base; units joined by * are phosphorothioate-linked, units joined directly phosphodiester-linked; [ ] holds rarer units or linkages, { } end groups; capitals alone tell only the bases. e = 2'-O-(2-methoxyethyl) (MOE); [5mC] = 5-methylcytosine; d = 2'-deoxy (DNA)
# MCV values compiled below
Response body: numeric value in fL, unit text excluded.

Substance	MCV (fL)
ISIS 449710: 3-8-3, 4-8-4, 2-10-2, 3-10-3 or 4-10-4 MOE microwalk gapmer (Table 46) (antisense e[5mC]*eA*e[5mC]*dA*dG*dT*dT*dT*d[5mC]*dT*dG*dG*d[5mC]*eA*eG*eG)	75
ISIS 445522: 5-8-5 or 6-8-6 MOE microwalk gapmer (Table 44) (antisense eG*e[5mC]*eA*e[5mC]*eA*dG*dT*dT*dT*d[5mC]*dT*dG*dG*e[5mC]*eA*eG*eG*e[5mC])	74
ISIS 449708: 3-8-3, 4-8-4, 2-10-2, 3-10-3 or 4-10-4 MOE microwalk gapmer (Table 46) (antisense eA*e[5mC]*eA*dG*dT*dT*dT*d[5mC]*dT*dG*dG*e[5mC]*eA*eG)	75

Query substance follows.
The reported MCV of the substance ISIS 449711: 3-8-3, 4-8-4, 2-10-2, 3-10-3 or 4-10-4 MOE microwalk gapmer (Table 46) (antisense eA*e[5mC]*dA*dG*dT*dT*dT*d[5mC]*dT*dG*dG*d[5mC]*eA*eG) was 75
